All values here come from patent US5223526A.

Tested on: Botrytis cinerea
procedure text: Eggplant grey mold
Type: in vivo
Parameters: key: 0: No disease control; 1: Low level of control; 2: Moderate control; 3: High level of control
applied conditions: eggplant sprayed with 500 ppm, inoculated 24 h later, rated after 3-4 days
assay metric: Disease Control Rating at 500 ppm

Cc1cccc(NC(=O)c2cn(C)nc2C(F)(F)F)c1C1CCCCC1 [Example 19]	3
Cn1cc(C(=O)Nc2ccccc2C2=CC(C)(C)CC(C)(C)C2)c(C(F)(F)F)n1 [Example 123]	0
Cn1cc(C(=O)Nc2cc(Cl)ccc2C2CCCCC2)c(C(F)F)n1 [Example 93]	0
Cn1cc(C(=O)Nc2ccc(F)cc2C2CCCCC2)c(C(F)(F)F)n1 [Example 12]	3
Cc1nn(C)c(Cl)c1C(=O)Nc1ccccc1C1CCCCCC1 [Example 107]	0
